# system_under_test: PIKFYVE (Homo sapiens, UniProt Q9Y2I7)
# Sequence (Q9Y2I7 whole entry): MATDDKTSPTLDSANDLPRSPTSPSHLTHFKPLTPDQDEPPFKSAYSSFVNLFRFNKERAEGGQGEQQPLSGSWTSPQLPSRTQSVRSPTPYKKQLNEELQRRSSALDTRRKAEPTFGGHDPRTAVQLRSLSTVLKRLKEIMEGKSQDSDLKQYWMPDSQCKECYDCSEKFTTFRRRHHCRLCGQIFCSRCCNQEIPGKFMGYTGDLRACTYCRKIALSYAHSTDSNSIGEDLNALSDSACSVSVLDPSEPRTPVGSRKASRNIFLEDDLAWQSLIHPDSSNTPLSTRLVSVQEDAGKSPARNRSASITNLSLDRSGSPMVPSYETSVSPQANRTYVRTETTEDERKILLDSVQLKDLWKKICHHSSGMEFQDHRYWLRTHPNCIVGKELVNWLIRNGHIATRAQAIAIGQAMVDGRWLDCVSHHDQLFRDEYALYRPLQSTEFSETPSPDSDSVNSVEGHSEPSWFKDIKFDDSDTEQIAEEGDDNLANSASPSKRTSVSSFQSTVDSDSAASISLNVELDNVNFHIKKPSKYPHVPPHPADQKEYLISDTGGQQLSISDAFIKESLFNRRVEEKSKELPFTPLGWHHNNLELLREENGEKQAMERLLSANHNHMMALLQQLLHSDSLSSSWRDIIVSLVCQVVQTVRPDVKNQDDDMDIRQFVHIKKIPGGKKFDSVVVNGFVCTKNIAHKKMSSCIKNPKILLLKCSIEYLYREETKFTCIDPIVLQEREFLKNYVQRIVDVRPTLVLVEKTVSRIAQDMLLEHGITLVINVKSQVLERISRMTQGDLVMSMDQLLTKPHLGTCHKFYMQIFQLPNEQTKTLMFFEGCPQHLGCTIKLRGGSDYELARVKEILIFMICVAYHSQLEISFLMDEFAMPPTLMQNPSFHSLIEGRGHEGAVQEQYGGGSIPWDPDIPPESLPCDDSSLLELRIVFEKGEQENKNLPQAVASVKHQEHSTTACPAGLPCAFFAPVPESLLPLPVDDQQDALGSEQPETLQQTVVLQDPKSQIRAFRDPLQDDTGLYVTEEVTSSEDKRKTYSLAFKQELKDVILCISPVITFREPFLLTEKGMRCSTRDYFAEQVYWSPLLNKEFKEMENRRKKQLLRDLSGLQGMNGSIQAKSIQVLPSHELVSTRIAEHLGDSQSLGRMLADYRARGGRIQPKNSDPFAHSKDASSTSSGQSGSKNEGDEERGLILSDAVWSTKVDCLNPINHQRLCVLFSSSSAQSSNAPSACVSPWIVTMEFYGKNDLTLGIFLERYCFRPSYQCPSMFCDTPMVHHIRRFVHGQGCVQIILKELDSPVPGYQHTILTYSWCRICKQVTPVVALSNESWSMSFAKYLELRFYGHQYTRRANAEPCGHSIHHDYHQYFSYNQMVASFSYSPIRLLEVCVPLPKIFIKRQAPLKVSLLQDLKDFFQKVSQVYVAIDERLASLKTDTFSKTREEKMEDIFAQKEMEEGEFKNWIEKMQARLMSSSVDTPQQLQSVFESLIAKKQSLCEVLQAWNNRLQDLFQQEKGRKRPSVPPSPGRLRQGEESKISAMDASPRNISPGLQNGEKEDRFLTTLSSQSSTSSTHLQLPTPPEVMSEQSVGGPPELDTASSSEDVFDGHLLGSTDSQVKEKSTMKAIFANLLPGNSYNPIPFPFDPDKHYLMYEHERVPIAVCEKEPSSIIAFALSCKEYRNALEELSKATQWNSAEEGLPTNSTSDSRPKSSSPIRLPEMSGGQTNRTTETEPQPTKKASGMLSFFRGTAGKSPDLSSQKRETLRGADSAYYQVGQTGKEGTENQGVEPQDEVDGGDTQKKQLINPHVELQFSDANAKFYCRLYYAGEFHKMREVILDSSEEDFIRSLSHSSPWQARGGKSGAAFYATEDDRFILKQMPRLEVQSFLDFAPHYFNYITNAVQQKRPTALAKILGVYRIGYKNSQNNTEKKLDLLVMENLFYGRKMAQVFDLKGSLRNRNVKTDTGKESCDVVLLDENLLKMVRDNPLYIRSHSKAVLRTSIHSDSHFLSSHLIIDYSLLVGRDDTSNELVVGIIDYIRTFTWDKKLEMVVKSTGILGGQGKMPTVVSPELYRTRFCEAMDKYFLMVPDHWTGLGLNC
# assay: PIKFYVE assay (luciferase ADP-Glo kinase assay, Promega)
# Format: biochemical
# protocol_conditions: Table 3
Entries and their measured IC50 follow.

[
  {
    "compound": "Cn1cc(COCc2nc(N3CCOCC3)cc(-n3ccc(-c4ccccc4)n3)n2)cn1",
    "reported_measurement": "3 to 10 nM"
  },
  {
    "compound": "CO[C@@H](CO)c1nc(N2CCOCC2)cc(-n2nc(-c3c[nH]c4ccncc34)cc2C)n1",
    "reported_measurement": "100 to 5000 nM"
  },
  {
    "compound": "Cc1cccc(-c2ccn(-c3cc(N4CCOCC4)nc(OCCc4cnn(CCO)c4)n3)n2)c1",
    "reported_measurement": "< 3 nM"
  },
  {
    "compound": "Cn1cc(CCOc2nc(N3CCOCC3)cc(-n3ccc(-c4cccc(F)c4)n3)n2)cn1",
    "reported_measurement": "< 3 nM"
  },
  {
    "compound": "Cc1cccc(-c2ccn(-c3cc(N4CCOCC4)nc(OCCc4cnccn4)n3)n2)c1",
    "reported_measurement": "< 3 nM"
  },
  {
    "compound": "Cc1cccc(-c2ccn(-c3cc(N4CCOCC4)c4[nH]cc(C)c4n3)n2)c1",
    "reported_measurement": "10 to 100 nM"
  },
  {
    "compound": "c1ccc(-c2ccn(-c3cc(N4CCOCC4)nc(OCc4cccnn4)n3)n2)cc1",
    "reported_measurement": "3 to 10 nM"
  }
]

Problem: IC50 lookup needed for Cc1cc(-c2c[nH]c3ccccc23)nn1-c1cc(N2CCOCC2)nc(C2COCCO2)n1 (single isomer, unassigned) [Compound 344] , thanks.
Solution: < 3 nM
